experiment: recombinant barcode read abundance after kanamycin selection (control-corrected) (log10(CPM+1)); higher = more efficient recombination; sequences stand for … in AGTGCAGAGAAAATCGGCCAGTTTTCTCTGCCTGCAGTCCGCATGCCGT…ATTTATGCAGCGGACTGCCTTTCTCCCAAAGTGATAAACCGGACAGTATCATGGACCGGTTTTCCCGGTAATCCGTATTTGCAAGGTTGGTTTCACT; site = the 11-nt target
Property: recombinant barcode read abundance (log10); scope: individual sequences
recorded endpoint: recombinant barcode read abundance (log10)

residues	quantitative result
AAACACATGTGGGTTCTAACCTGTTGCCTCA [AAACACACTAG_LTGcore_TG_RTGcore_TG] (site AAACACACTAG) (LTG core: TG, RTG core: TG)	0.0962
TGATACCCATGGGTTCTAACCTGTTGCGTTG [TGATACCCTAC_LTGcore_CA_RTGcore_CA] (site TGATACCCTAC) (LTG core: CA, RTG core: CA)	0.0326
AGGCCTCAATGGGTTCTAACCTGTTGCCTAG [AGGCCTCCTAG_LTGcore_AA_RTGcore_CT] (site AGGCCTCCTAG) (LTG core: AA, RTG core: CT)	0.0132
GGCTCCCCTTGGGTTCTAACCTGTTGCGGCT [GGCTCCCCTCC_LTGcore_CT_RTGcore_AG] (site GGCTCCCCTCC) (LTG core: CT, RTG core: AG)	0.0367
AGGCGGGTATGGGTTCTAACCTGTTGCGGTA [AGGCGGGCTCC_LTGcore_TA_RTGcore_TA] (site AGGCGGGCTCC) (LTG core: TA, RTG core: TA)	0.364
GTCGCCCAATGGGTTCTAACCTGTTGCTAAG [GTCGCCCCTTA_LTGcore_AA_RTGcore_CT] (site GTCGCCCCTTA) (LTG core: AA, RTG core: CT)	0.688
GAGTCCATATGGGTTCTAACCTGTTGCGTTA [GAGTCCACTAC_LTGcore_TA_RTGcore_TA] (site GAGTCCACTAC) (LTG core: TA, RTG core: TA)	0.0207
TCGCGACCTTGGGTTCTAACCTGTTGCCGTG [TCGCGACCTCG_LTGcore_CT_RTGcore_CA] (site TCGCGACCTCG) (LTG core: CT, RTG core: CA)	0.0363
GGCTCCCACTGGGTTCTAACCTGTTGCGGGT [GGCTCCCCTCC_LTGcore_AC_RTGcore_AC] (site GGCTCCCCTCC) (LTG core: AC, RTG core: AC)	0.143
ATGTCCCCTTGGGTTCTAACCTGTTGCTCCG [ATGTCCCCTGA_LTGcore_CT_RTGcore_CG] (site ATGTCCCCTGA) (LTG core: CT, RTG core: CG)	0.249

* * *

assay: recombinant UMI read abundance after kanamycin selection (control-corrected) (log10(CPM+1)); higher = more efficient recombination; extreme values may be limits of the assay; sequences stand for … in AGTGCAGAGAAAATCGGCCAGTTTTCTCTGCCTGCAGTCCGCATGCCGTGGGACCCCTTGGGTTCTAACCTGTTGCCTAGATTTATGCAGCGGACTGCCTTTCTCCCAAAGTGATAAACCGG…AGGTTGGTTTCACT; site = the 11-nt donor
Field: class. Source value: recombinant UMI read abundance (log10). Ranges: lower band: < 0.008; central band: ≥ 0.008 and < 0.5; upper band: ≥ 0.5

residues	class
ATAAGGCCATGGACCGGTTTTCCCGGTAATCCGTATTTGCC (site ATAAGGCCTGC)	lower band
CTAGTCTCATGGACCGGTTTTCCCGGTAATCCGTATTTGTC (site CTAGTCTCTGA)	upper band
CCTAATACATGGACCGGTTTTCCCGGTAATCCGTATTTGGG (site CCTAATACTCC)	central band
ATCTAGACATGGACCGGTTTTCCCGGTAATCCGTATTTGAC (site ATCTACACTGT)	lower band
ACGGTATCATGGACCGGTTTTCCCGGTAATCCGTATTTGTA (site ACAGTATCTTG)	upper band
ACGAAAACATGGACCGGTTTTCCCGGTAATCCGTATTTGCA (site AGGAAGACTTG)	lower band
CCCCACACATGGACCGGTTTTCCCGGTAATCCGTATTTGTG (site CCCCACACTAA)	lower band
GCCAAGCCATGGACCGGTTTTCCCGGTAATCCGTATTTGGG (site GCGAAGCCTCC)	lower band
ACACCTACATGGACCGGTTTTCCCGGTAATCCGTATTTGTG (site ACAACTACTCA)	central band
CTCCACACATGGACCGGTTTTCCCGGTAATCCGTATTTGTA (site CCCCACACTTA)	upper band
AGACGGGCATGGACCGGTTTTCCCGGTAATCCGTATTTGTC (site AGACGGGCTGA)	upper band
CTGCTGCCATGGACCGGTTTTCCCGGTAATCCGTATTTGGC (site CTGCTGCCTGC)	lower band
GGTACGGCATGGACCGGTTTTCCCGGTAATCCGTATTTGTT (site GGTACGTCTAA)	lower band
TCATCCTCATGGACCGGTTTTCCCGGTAATCCGTATTTGAA (site TCATCCTCTTT)	upper band
TTTGCGGCATGGACCGGTTTTCCCGGTAATCCGTATTTGCG (site TTTGCGGCTCG)	central band
CCCATAGCATGGACCGGTTTTCCCGGTAATCCGTATTTGTC (site CCCATAACTGA)	central band
TCAGACTCATGGACCGGTTTTCCCGGTAATCCGTATTTGCA (site TCAAACTCTTG)	upper band
GGAGACGCATGGACCGGTTTTCCCGGTAATCCGTATTTGGT (site GGAGACGCTAC)	central band
ATCTATCCATGGACCGGTTTTCCCGGTAATCCGTATTTGAC (site ATCTATCCTGT)	upper band
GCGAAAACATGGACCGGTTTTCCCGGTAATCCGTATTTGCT (site GCTAAAACTAG)	lower band
TAAGCTGCATGGACCGGTTTTCCCGGTAATCCGTATTTGCC (site TAAGCTGCTGG)	upper band
TTGGCAACATGGACCGGTTTTCCCGGTAATCCGTATTTGCT (site TTGGCAACTAG)	central band
GTAGGTACATGGACCGGTTTTCCCGGTAATCCGTATTTGAT (site GTAGGTACTTT)	lower band
CTTCTCTCATGGACCGGTTTTCCCGGTAATCCGTATTTGAA (site CTTCTCTCTTC)	central band
CATTAAACATGGACCGGTTTTCCCGGTAATCCGTATTTGCC (site CATTAAACTGG)	upper band
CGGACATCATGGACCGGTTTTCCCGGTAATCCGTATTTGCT (site CGGACATCTAA)	lower band
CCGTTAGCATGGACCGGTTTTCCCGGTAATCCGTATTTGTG (site CCGTTAGCTCA)	central band
ACACATCCATGGACCGGTTTTCCCGGTAATCCGTATTTGAG (site ACACATCCTCT)	upper band
ACATCGACATGGACCGGTTTTCCCGGTAATCCGTATTTGTG (site ACATCTACTCA)	central band
GGTCCACCATGGACCGGTTTTCCCGGTAATCCGTATTTGTA (site GGTCCATCTTA)	central band
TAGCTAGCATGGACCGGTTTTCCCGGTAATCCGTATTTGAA (site TAGCTATCTTT)	upper band
GACCAGCCATGGACCGGTTTTCCCGGTAATCCGTATTTGTT (site GACCAGCCTAA)	lower band
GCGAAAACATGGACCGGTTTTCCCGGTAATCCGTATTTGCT (site GCCAAAACTAG)	lower band
GTGCATACATGGACCGGTTTTCCCGGTAATCCGTATTTGGT (site GTGCATCCTAC)	central band

* * *

Property: recombinant barcode read abundance (log10); scope: individual sequences
test: recombinant barcode read abundance after kanamycin selection (control-corrected) (log10(CPM+1)); higher = more efficient recombination; sequences stand for … in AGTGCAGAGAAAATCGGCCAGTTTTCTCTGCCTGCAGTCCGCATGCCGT…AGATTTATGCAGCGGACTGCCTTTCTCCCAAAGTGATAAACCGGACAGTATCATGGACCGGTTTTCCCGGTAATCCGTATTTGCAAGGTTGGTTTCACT; site = the 11-nt target
recorded endpoint: recombinant barcode read abundance (log10)

residues	quantitative result
GGTGCTCCTTGGGTTCTAACCTGTTGCAA (site GGTGCTCCTTT)	0.3
TAGTTTCCTTGGGTTCTAACCTGTTGCGT (site TAGTATCCTAC)	0.3
GTTTGCCCTTGGGTTCTAACCTGTTGCTT (site GTTTGGCCTAA)	0.0442
ACATACCCTTGGGTTCTAACCTGTTGCTG (site ACATACCCTCA)	1.81
TAGGCTCCTTGGGTTCTAACCTGTTGCCG (site TAGCCTACTCG)	0.00951
TAGGAGACTTGGGTTCTAACCTGTTGCGT (site TAGGAAACTAC)	1.42
CCAAAGGCTTGGGTTCTAACCTGTTGCCT (site CCAAAGGCTAG)	0.656
GATGTGCCTTGGGTTCTAACCTGTTGCGT (site GATGTGCCTAC)	2.57
TACATCCCTTGGGTTCTAACCTGTTGCCC (site TACATCCCTGG)	0.646
TGAACTACTTGGGTTCTAACCTGTTGCCT (site TGAAGTACTAG)	0.0835
TTGACGACTTGGGTTCTAACCTGTTGCCG (site TTGACGACTCG)	0.452
GTATCACCTTGGGTTCTAACCTGTTGCCT (site GTATCATCTAG)	0.0641
AGGTCACCTTGGGTTCTAACCTGTTGCTT (site AGGTCACCTAA)	0.941
GTGTTGCCTTGGGTTCTAACCTGTTGCCT (site GTGTTGCCTAG)	0.73
CTAACTACTTGGGTTCTAACCTGTTGCGT (site GAGGTGCCTCA)	0.0974
GGAGCAGCTTGGGTTCTAACCTGTTGCCT (site GGAGCACCTAG)	0.223
TAATCGACTTGGGTTCTAACCTGTTGCCT (site TAATCGGCTAG)	0
GGACTATCTTGGGTTCTAACCTGTTGCCT (site GGACGATCTAG)	0.011
GGTCATGCTTGGGTTCTAACCTGTTGCCT (site GGTCATGCTAG)	1.11
TACTATCCTTGGGTTCTAACCTGTTGCCT (site TACTATCCTAG)	0.441
TTCCCGCCTTGGGTTCTAACCTGTTGCCT (site TTCTCGCCTAG)	0.155
